Kindly supply the reported relative cell growth values for the records listed here.
Assay: Growth inhibition of human A172 cells after 6 days
Format: functional, cell-based
Details: a 172

Example entries and their recorded answers appear below.
query: Endpoint output: relative cell growth of "CCN1C[C@]2(COC)CC[C@H](OC)[C@]34C1[C@@](O)([C@@H](OC)[C@H]23)[C@@]1(O)C[C@H](OC)[C@H]2C[C@@H]4[C@@H]1[C@H]2OC(C)=O" . Value?
result: 0.99

query: What about "C=C1[C@H]2C[C@H]3C4N5C[C@]6(C)CCC[C@]47[C@H]([C@H]2OC(=O)c2cccc(C(F)(F)F)c2)C3(C[C@]5(O)[C@H]67)[C@@H]1O" ?
result: 0.58

query: What about "C=C1[C@H]2C[C@H]3C4N5C[C@]6(C)CCC[C@]47[C@H]([C@H]2OC(=O)c2ccc(OC)cc2)C3(C[C@]5(O)[C@H]67)[C@@H]1O" ?
result: 0.23

query: What about "C=C1[C@H]2C[C@H]3C4N5C[C@]6(C)CCC[C@]47[C@H]([C@H]2OC(=O)c2cccc(C(F)(F)F)c2)C3(CC5[C@H]67)[C@@H]1O" ?
result: 0.6

Then there is this compound:
query: Endpoint output: relative cell growth of C=C1[C@H]2C[C@H]3C4N(Cc5ccccc5)C[C@]5(C)CCC[C@]46[C@H]([C@H]2O)C3(CC(=O)[C@H]56)[C@@H]1OCc1ccccc1 (stereo not given in full) . Value?
result: 1.04
